# System: Dd2
# Assay Text: qHTS profiling for inhibitors of Plasmodium falciparum proliferation (AID 504749); further: nearly all actives have a fitted effect of over 60% in size; further: potency means the concentration at half of the fitted maximal effect
# Experimental Setup: P. falciparum in erythrocytes, SYBR Green DNA, 72 h; series mostly up to 28.7 µM
Results filed as inconclusive are left out. Activity calls are given as the source filed them. The call rests on the fitted dose curve; in most records, active means well fitted inhibition curve with a large enough effect; inconclusive means small, poorly fitted or top-dose-only effect; inactive means flat fitted curve, though single readings scatter.
Reported Endpoint: Potency

Notebook entry, Dd2 assay: Potency of O=C(O)CCCCC(=O)O = ?
inactive

Notebook entry, Dd2 assay: Potency of Cc1c(C(C)C)c(=O)n(-c2ccccc2)n1C = ?
inactive

Notebook entry, Dd2 assay: Potency of O=C(N/N=C/c1ccccc1O)c1ccncc1 = ?
11.2 µM (active)

Notebook entry, Dd2 assay: Potency of COc1ccc(/C=C/C(=O)c2ccc(OC)cc2OC)cc1 = ?
7.08 µM (active)

Further cases:
Notebook entry, Dd2 assay: Potency of CCC(=O)c1c(O)cc(O)cc1O = ?
inactive

Notebook entry, Dd2 assay: Potency of CCCCCCCCCCCCCCCCOP(=O)([O-])OCC[N+](C)(C)C = ?
inactive
